Entry source: paper PMC11141368

Target: butyryl cholinesterase (BChE) (Equus caballus, UniProt P81908)
Construct: The AChE was derived from the electric eel, while BChE was obtained from equineserum; from tissue; host or cells: equine serum
Sequence (P81908 whole entry): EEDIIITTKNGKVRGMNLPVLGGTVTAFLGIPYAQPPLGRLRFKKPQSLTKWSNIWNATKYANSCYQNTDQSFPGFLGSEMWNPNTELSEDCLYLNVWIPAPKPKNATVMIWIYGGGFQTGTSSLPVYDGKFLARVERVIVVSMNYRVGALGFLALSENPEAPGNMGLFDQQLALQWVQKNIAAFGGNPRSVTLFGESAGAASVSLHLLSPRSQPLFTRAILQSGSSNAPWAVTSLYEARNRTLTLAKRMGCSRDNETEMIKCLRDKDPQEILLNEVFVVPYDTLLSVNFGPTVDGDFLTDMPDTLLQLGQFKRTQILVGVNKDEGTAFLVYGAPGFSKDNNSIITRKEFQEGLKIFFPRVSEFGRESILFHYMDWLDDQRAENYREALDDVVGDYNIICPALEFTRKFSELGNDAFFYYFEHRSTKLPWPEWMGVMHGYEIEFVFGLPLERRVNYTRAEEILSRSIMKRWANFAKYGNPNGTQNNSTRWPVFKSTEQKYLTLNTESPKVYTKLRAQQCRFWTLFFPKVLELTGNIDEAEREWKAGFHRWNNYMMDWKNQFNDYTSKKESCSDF
Assay: Anticholinesterase assay (Elman's test), BChE
Format: biochemical
Conditions: read-out: BChE Percent inhibition
Readout: inhibition at 1000 µg/mL (%)

1. COc1ccc2c3c1O[C@H]1C[C@@H](O)C=C[C@@]31CCN(C)C2 [Galantamine, reference compound] ... 89.6
2. S=C(Nc1ccc(Cl)cc1)NC1CCCCC1 ... 71.3
3. S=C(Nc1ccccn1)NC1CCCCC1 ... 91.8
4. Cc1cccnc1NC(=S)Nc1ccccc1 ... 69.6
5. S=C(Nc1ccccc1)Nc1cccc(Cl)c1 ... 71.6
6. Cc1ccc(NC(=S)NC2CCCCC2)c(C)c1 ... 67.4
7. Cc1cccnc1NC(=S)NC1CCCCC1 ... 64.8

====

Target: acetylcholinesterase (AChE) (Electrophorus electricus)
Construct: The AChE was derived from the electric eel, while BChE was obtained from equineserum; from tissue; host or cells: electric eel (tissue not specified)
Sequence (O42275 24-633): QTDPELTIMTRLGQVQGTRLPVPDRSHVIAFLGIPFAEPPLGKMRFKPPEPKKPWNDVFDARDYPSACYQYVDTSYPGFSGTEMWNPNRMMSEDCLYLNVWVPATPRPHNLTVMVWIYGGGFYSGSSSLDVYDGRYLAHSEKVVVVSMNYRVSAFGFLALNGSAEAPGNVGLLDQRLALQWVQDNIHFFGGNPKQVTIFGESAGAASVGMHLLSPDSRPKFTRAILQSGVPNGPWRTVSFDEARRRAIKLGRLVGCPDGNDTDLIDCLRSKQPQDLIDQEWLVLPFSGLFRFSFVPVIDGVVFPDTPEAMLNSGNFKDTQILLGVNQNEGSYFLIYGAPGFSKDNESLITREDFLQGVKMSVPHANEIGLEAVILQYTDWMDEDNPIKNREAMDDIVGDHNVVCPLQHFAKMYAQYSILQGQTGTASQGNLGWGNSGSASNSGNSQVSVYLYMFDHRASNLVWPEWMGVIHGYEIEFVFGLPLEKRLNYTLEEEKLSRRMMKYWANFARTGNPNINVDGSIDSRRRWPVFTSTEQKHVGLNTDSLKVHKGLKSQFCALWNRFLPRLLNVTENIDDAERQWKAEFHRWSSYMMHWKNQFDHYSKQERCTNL
Assay: biochemical
Settings: read-out: AChE Percent inhibition
Procedure: This assay employed two enzymes, namely acetylcholinesterase (AChE) and butyryl cholinesterase (BChE). The AChE was derived from the electric eel, while BChE was obtained from equineserum. The synthesized compounds were dissolved in phosphate buffer (0.1 M, pH 8.0). […] Absorbance of the heated sample at 412 nm was measured using a double beam spectrophotometer. […]
Please enter Satisfied where inhibition at 125 µg/mL is greater than or equal to 40%, and Not satisfied where it is lower.

1. Cc1cccnc1NC(=S)Nc1ccccc1 [Compound 5] ... Satisfied
2. S=C(Nc1ccccc1)Nc1cccc(Cl)c1 [Compound 6, 1-(3-chlorophenyl)-3-phenylthiourea] ... Satisfied
3. Cc1cccnc1NC(=S)NC1CCCCC1 [Compound 2] ... Not satisfied
4. S=C(Nc1ccccn1)NC1CCCCC1 [Compound 1, 1-cyclohexyl-3-(pyridin-2-yl) thiourea] ... Satisfied
5. Cc1ccc(NC(=S)NC2CCCCC2)c(C)c1 [Compound 3] ... Satisfied

====

Measured inhibition at 500 µg/mL by item
Molecular target: butyryl cholinesterase (BChE) (Equus caballus)
Construct: The AChE was derived from the electric eel, while BChE was obtained from equineserum; from tissue; host or cells: equine serum
Test: Anticholinesterase assay (Elman's test), BChE
Type: biochemical
Settings: read-out: BChE Percent inhibition
Readout: inhibition at 500 µg/mL (%)

1. Cc1ccc(NC(=S)NC2CCCCC2)c(C)c1 [Compound 3] ... 61.9
2. Cc1cccnc1NC(=S)Nc1ccccc1 [Compound 5] ... 61.6
3. S=C(Nc1ccccc1)Nc1cccc(Cl)c1 [Compound 6, 1-(3-chlorophenyl)-3-phenylthiourea] ... 66.8

====

Experiment: DPPH free radical scavenging assay
Assay type: biochemical
Readout: DPPH IC50

1. Cc1cccnc1NC(=S)Nc1ccccc1 ... 37.50 µg/mL
2. S=C(Nc1ccccc1)Nc1cccc(Cl)c1 ... 90.30 µg/mL
3. S=C(Nc1ccc(Cl)cc1)NC1CCCCC1 ... 67.11 µg/mL
4. S=C(Nc1ccccn1)NC1CCCCC1 ... 63.02 µg/mL
5. O=C(O)c1cc(O)c(O)c(O)c1 [Gallic acid, gallic acid, reference compound] ... 27.06 µg/mL
6. Cc1cccnc1NC(=S)NC1CCCCC1 ... 72.00 µg/mL
7. Cc1ccc(NC(=S)NC2CCCCC2)c(C)c1 ... 118.05 µg/mL
